- System: human bronchial epithelial cells (HBE)
- assay_remarks: LDH release assay (Cytotoxicity Detection Kit)
- Assay type: cell-based
- condition_description: 100 μg/ml, 24 hours; no peptide control 1.0 ± 0.05
- Procedure: The potential toxicity of the peptides was measured in two ways. First, the Cytotoxicity Detection Kit (Roche) (Lactate dehydrogenase-LDH) Assay was used. It is a colorimetric assay for the quantification of cell death and cell lysis, based on the measurement of LDH activity released from the cytosol of damaged cells into the supernatant. […] The cells are incubated with the reagent and the plate is then measured with an ELISA plate reader, OD490 nm.
No end group written: not given here.
For each record, write down the corresponding LDH Release (OD490 nm).
# output: numeric value plus its unit

KKQMMKRVDVRGISVKRKR [SEQ ID NO: 34] : 1.02 ± 0.03 OD490 nm

Dear colleague, could you send me LDH Release (OD490 nm) for each of the items below? Thanks.
1. KQKLFAKMLMSALKKKTLVTTPLAGK [SEQ ID NO: 45]
2. RKMVKVDVRGIMIRKDRR [SEQ ID NO: 29]

1: 0.98 ± 0.04 OD490 nm; 2: 0.99 ± 0.02 OD490 nm
